These data points were gathered from patent US20180291110A1.

target: T1, human transferrin receptor (recombinant, for surface plasmon resonance) (human, UniProt P02786 89-760); assay: SPR 25C
T1 construct: also called huTfR; human transferrin receptor-biotinylated
T1 sequence (P02786 89-760 limits assumed): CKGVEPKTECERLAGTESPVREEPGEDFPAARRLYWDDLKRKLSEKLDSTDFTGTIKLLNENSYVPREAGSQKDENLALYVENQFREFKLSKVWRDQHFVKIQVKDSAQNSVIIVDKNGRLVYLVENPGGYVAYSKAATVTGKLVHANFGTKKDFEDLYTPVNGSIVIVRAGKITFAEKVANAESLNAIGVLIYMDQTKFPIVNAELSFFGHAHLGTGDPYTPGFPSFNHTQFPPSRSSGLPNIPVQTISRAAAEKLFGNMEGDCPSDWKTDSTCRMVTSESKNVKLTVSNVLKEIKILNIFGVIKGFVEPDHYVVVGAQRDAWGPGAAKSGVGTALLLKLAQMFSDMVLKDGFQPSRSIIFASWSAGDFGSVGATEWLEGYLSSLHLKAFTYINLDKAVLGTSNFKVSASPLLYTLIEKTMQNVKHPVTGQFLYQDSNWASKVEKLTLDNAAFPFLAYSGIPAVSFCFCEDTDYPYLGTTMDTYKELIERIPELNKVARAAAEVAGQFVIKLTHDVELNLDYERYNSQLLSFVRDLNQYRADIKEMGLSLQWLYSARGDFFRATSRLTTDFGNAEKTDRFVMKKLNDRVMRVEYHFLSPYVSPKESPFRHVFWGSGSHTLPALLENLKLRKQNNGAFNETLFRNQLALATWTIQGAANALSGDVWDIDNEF
READOUT NAME: koff (s⁻¹)
One number for each entry, in s⁻¹.

>>> recorded_number("2/99 VH8/VL15 (antibody, V domains shown) VH: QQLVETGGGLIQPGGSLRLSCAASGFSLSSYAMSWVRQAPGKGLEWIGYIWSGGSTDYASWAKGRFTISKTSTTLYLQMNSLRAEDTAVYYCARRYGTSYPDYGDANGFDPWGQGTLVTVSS VL: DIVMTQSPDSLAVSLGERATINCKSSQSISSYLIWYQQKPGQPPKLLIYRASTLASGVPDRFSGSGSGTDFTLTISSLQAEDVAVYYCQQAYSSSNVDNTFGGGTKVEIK")
0.00181

# evaluate next
Q) Quick one: koff for 2/99 VH18/VL4 (antibody, V domains shown) VH: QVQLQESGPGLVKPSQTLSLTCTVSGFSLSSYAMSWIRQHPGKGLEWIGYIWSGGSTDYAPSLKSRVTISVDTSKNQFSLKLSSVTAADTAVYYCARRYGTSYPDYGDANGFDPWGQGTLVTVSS VL: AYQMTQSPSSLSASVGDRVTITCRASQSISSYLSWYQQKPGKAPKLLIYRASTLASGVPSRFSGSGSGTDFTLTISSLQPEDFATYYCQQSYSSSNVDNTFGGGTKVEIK ?
A) 0.00335
